assay.name: protein stability index of a GFP-peptide fusion (GPS, HEK-293T) (PSI 1-6); higher = more stable;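 note: 24-mer peptide tiles fused after GFP, lentivirally expressed, FACS-sorted into six equal bins by GFP/DsRed ratio, decoded by Illumina sequencing, PSI is the read-weighted mean bin number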
measurement.parameters: treatment: DMSO; c terminus: a fixed tail appended
Decide using protein stability index: a value greater than or equal to 3 is true, a smaller one is false.

1) GNFDWVGNDFTQNAGTGLVINQAD [PLD5] = true
2) PHQTSKMENLPGLASGPGKYMPHL = true
3) QLTNTSGTVIGVTSCIVIILIIIS [NETO1] = false
4) GNQLISNNIKFKKSSILTRAGEQR [CLCN6] = true
5) LLSLVTFTFLSAKCLQGNADGDGG [PCDHGC5] = true
6) CRELGYVEAKSWTASSSYGKGEGP [LOXL2] = true
7) EDQVVVNKAAVMVHQLSKKEASRH [CTNNB1] = true
8) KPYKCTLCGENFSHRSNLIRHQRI [ZNF263] = false
9) SAAWMKERTSPGAIHYCASTSEES [SPDEF] = true
10) EKEDAEKENIEKDEDDVDQELANI [SRPK2] = true
11) LEEEIRRKQILLRGKLKKTEEELR [ZC2HC1C] = true
12) GQRGAQGAGRRRRAGGPPRPMSEP [SMAD6] = true
13) LDVKSPPEPRSEVVPARLKRASAP [RIPK4] = true
14) EFLGNRSVILNHMAREHAFNIGLP [ZNF277] = false
15) TGGSADLFGGFADFGSAAASGSFP [CLINT1] = true
16) EIMLQYCFPRLDINVSKGINHLLK [PRIM1] = false
17) KELEDMNQKLFDLRGKFKRPPLRR [TNNI2] = true
18) ERRELAVEQGERALERRRRALQEE [ZBED3] = true
19) RGCSVKIWTAHYDPGHCFAESREL [ALG2] = false
20) PMKSAPVMLTLSDSKHVVLPVDDD [RBBP5] = true
21) KGVNRKLGRTGLYPSYKVREKIET [FUT8] = true
22) SLIPLILDLMKEWIAHSEKLPRKV [SPACA9] = false
23) CVTLVWRMPDEDSKIDHYVLEYRR [FSD1] = false
24) LTTSQERELGIRQRDEQLRALQER [FBF1] = true
25) KSNGFFHGISIPEPEDMETLEEKF [CDKL4] = true
26) ACTLTVFPPEETTPSPSRESPLSA [KLHL13] = true

###

assay.name: protein stability index of a GFP-peptide fusion (GPS, HEK-293T) (PSI 1-6); higher = more stable
measurement.parameters: treatment: DMSO; c terminus: a fixed tail appended
Each entry belongs to exactly one class, chosen by where its protein stability index falls: class 0 (below 3), class 1 (3 to below 4), class 2 (4 or more)

1. PSRVHGSLEPFRPQQAPQDDGSQD [PWWP2B] = class 2
2. VAGDCLDEKQCKQCANKVLQHMKA [LRRC59] = class 1
3. LRRGASVNRTTRTNSTPLRAACFD [FEM1A] = class 1
4. LHSGLVHGLAFWFDVAFIGSIMTV [CARM1] = class 1
5. RENSSDSPKELKRRNSSSSMSSRL [DLC1] = class 2
6. LLAKNSKPIHTTILNPHVHVIGED [CAMK2B] = class 1
7. DVGDWRKNIEEKSGMEGRKKMFES [TNNI2] = class 2
8. SYLIEKVKRKKNVLRLCCKKLKIF [PRAME] = class 1
9. LLPEKAFSDIPSPYLRGTIKMMQA [GFOD1] = class 0
10. RSGIQFGSWGSFQLPGLLNFGEFK [CLCN6] = class 0
11. KQGQCTKGDKCKFSHDLTLERKCE [ZC3H15] = class 2
12. NLGPKSKVLILRNHGLVSVGESVE [ADD1] = class 0
13. LEEQFALEAGGYQAGAARLEEELR [PRPH] = class 2
14. CVDLTITNLLEGAVAFMPEDITKG [AUP1] = class 0
15. ELRGAEPGRPARLDQLLDMPAAGL [SPSB4] = class 1
16. LNQGFLQAKPEKAAVAQKPRSHFT [MYBL2] = class 1
17. ESQVFSEKLATDTSTFEATSEGTL [ZNF232] = class 2
18. VPQPRPPGARTRAGAARVARWRRL [FBXO33] = class 2
19. FEYPESSGPARVIAIVSVMVILIS [KCNA1] = class 0
20. VRRGHSHLAPSEAKAADSPTRNDL = class 2
21. FRGDDGIFDDNFIEERKQGLEQFI [SNX3] = class 1
22. TPPPGPASAQPLPAPEAAHTTGPT [TFE3] = class 2
23. KVLHEDKQTREQLHSISDSVLFLQ [TRIM29] = class 1
24. VPGGAGPCATVSVFPGARLLTIGD [CARM1] = class 0
